- Test system: TRPC4 (mouse), co-expressed with 5HT1a in HEK293
- Method: enhancement of serotonin-evoked TRPC4 response – cell-based, second counter screen, HEK293 TRPC4/5HT1a, Fluo-4, counter-screen for TRPC4 potentiator project, confirmation (AID 434979)
- Experimental context: Fluo-4 calcium flux, at 10 µM, serotonin added at its EC20 dose; hits give high values
The source made the active and inactive calls.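 Rule for the calls: active = signal rise over 3 SD above mean of control wells given weak agonist, in both repeats and first screen; inactive = the rest.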
Observation type: potentiation

- Cc1cccc(C(=O)NC(=S)NNC(=O)Cc2ccccc2)c1: inactive
- COC(=O)c1ccc(NC(=O)CCN2CCN(Cc3ccccc3)CC2)cc1: 12.9% (active)
- Cc1ccc(O)c(CNc2nc3ccccc3[nH]2)c1: inactive
- Cc1cccc2cc(CN(CCCN(C)C)C(=S)NCCc3ccccc3)c(=O)[nH]c12: inactive
- Cc1cccc(OCCC(=O)NCC(c2ccccc2)N(C)C)c1 (stereo unspecified): inactive
- CN1CCN(c2ccc(S(=O)(=O)N3CCCCC3)cc2NC(=O)c2ccc(F)cc2F)CC1: 14.3% (active)
- O=C(COc1coc(CN2CCN(c3ccccc3F)CC2)cc1=O)Nc1ccccc1: inactive
- COc1cc(OC)c(OC)cc1CCC(C)NCCC(c1ccccc1)c1ccccc1 (stereo unspecified): inactive
- CC1=C(C(=O)NCCN2CCN(C)CC2)C2(CCC(C)CC2)OC1=O (stereo unspecified): inactive
- O=[N+]([O-])c1ccc2c(c1)C=C1CCCCC1(N1CCCC1)O2 (stereo unspecified): inactive
- Cc1nc2ccccc2n1CCOc1ccc(F)cc1: inactive
